Exercise: state measured inhibition at 10 µM for each of the molecules provided.
Target: CDC2L6/CycC (CDK19) (Homo sapiens, UniProt Q9BWU1)
Construct: purchased Carna Biosciences
Sequence (Q9BWU1 whole entry): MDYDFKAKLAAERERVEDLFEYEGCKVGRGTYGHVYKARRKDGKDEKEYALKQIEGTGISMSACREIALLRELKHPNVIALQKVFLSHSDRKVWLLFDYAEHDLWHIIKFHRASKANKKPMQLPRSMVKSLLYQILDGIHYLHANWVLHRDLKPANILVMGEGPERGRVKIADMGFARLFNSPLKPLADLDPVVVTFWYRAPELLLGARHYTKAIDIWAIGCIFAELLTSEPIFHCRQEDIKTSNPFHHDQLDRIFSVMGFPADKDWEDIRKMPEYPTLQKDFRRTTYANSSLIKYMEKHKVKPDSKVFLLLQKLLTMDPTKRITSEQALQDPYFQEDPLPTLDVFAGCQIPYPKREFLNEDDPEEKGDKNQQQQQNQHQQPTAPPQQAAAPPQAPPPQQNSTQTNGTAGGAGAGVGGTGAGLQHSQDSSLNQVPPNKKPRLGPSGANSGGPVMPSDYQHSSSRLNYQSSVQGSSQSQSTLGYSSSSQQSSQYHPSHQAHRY
Sequence (P24863 whole entry partner): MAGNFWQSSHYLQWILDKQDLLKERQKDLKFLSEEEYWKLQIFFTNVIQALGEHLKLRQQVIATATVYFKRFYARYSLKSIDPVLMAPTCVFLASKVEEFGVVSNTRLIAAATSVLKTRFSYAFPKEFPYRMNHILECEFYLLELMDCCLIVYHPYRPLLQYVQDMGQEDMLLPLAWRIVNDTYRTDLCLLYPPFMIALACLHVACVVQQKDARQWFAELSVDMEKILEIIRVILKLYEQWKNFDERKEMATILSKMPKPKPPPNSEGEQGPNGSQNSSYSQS
Test: CDK19-inhibiting activity (Kinase Tracer-236 / Eu-anti-GST fluorescence assay)
Format: binding
Details: 10 μM test compound; read-out: rate of inhibition of CDK19
Counter-ions that a name gives are not always drawn.
Give a bare numeral; the unit % is implied.

Record `c1ccc(COc2cccc(-c3c[nH]c4ncccc34)c2)cc1` , field inhibition at 10 µM: 101

The molecule listed as `Cn1ncc2c1-c1c(Oc3ccc(F)cc3F)sc(C(N)=O)c1CC2` shows inhibition at 10 µM equal to 96

Kindly note the recorded inhibition at 10 µM for CCCCNC(=O)c1ccc2cncc(-c3ccc(OC)cc3)c2n1 [Compound 6, trifluoroacetate] , which is 100

Documented inhibition at 10 µM of O=C1Nc2ccccc2N(S(=O)(=O)c2ccc(F)cc2)C1CCSc1ccc2nccn2n1 (stereo not shown) : 103

The molecule listed as `NC(=O)c1ccc(-c2c[nH]c3ncccc23)cc1NCc1ccccc1` shows inhibition at 10 µM equal to 104

Lab book: inhibition at 10 µM of Oc1ccc(-c2n[nH]cc2-c2ccc3c(c2)OCCO3)c(O)c1 [Compound 5, reference compound] noted as 100

Given item CCCN(CCC)C(=O)c1ccc2cncc(-c3ccc(C)cc3)c2n1 [Compound 7, trifluoroacetate] , the value recorded as its inhibition at 10 µM is 100
